# test-name: IEC-6 cell viability reduction – luminescence, cytotoxicity control for KLF5 inhibitor project, primary screen (AID 1825);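 further: 0% = plate median of test compound wells and 100% = cytotoxic reference compound wells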
# reported-conditions: IEC-6 cytotoxicity, at 5 µM, hits give high values
Screen size: about 290,000 compounds; about 2,300 (0.79%) were called active. The sample holds actives, similar compounds and a random draw of the others, so the mix is not that of the screen.
assay-readout: inhibition

Consider the worked cases shown below.
compound: Cc1ccc(Oc2ccc3c(c2)C(=O)N(c2cccc4cccnc24)C3=O)cc1
inhibition: 25.8% (active)
--
compound: Cn1c(=O)cc(OCC(=O)N2CCN(c3ccccc3F)CC2)c2ccccc21
inhibition: -5.1% (inactive)
--
compound: CC(C)(C)NS(=O)(=O)c1ccc(NC(=O)C2CCCO2)cc1 (stereo unspecified)
inhibition: -5% (inactive)
--
compound: CCn1ccnc1CN(C)C(=O)c1cc(COc2ccc(-n3cncn3)cc2)on1
inhibition: -7.1% (inactive)
--
compound: O=C(c1cc(COc2ccc(F)c(F)c2)on1)N1CCOCC1
inhibition: 0.8% (inactive)
--
compound: Cc1cccc(N2C(=O)c3cccnc3C2=O)c1
inhibition: 3.1% (inactive)
--
compound: CC(=O)NC1=NN(C(C)=O)C(C)(c2ccc(C)cc2)S1 (stereo unspecified)
inhibition: -3.8% (inactive)
--
compound: CC(=O)NC1=NN(C(C)=O)C(C)(CCS(=O)(=O)c2ccc(Cl)c(Cl)c2)S1 (stereo unspecified)
inhibition: -1% (inactive)
--
compound: Cc1ccc(N2C(=O)C(Cc3ccccc3)NC2=S)cc1 (stereo unspecified)
inhibition: 24.6% (active)
--
compound: C/C(=N\NC(=O)Cc1ccc(Cl)cc1)c1ccccn1
inhibition: -2.8% (inactive)

Switching to the query record.
For the compound `C=CCC1(CC=C)CCCN1C(=O)c1cc(COc2ccc(-n3cncn3)cc2)on1` , give its measured inhibition value. 22.6% (active)

====

# test-name: IEC-6 cell viability reduction – luminescence, cytotoxicity control for KLF5 inhibitor project, primary screen (AID 1825);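 further: 0% = plate median of test compound wells and 100% = cytotoxic reference compound wells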
# reported-conditions: IEC-6 cytotoxicity, at 5 µM, hits give high values
The whole screen tested about 290,000 compounds, of which about 2,300 (0.79%) were called active. What follows is part of a selection rich in actives, with near analogues and random picks from the rest.
Parameter inhibition: see the listing below.
Hi! Could you send only the number? It should be in %, unit omitted.

compound: Nc1c(C(=O)NCc2ccccc2)nnn1Cc1cccc(Cl)c1
inhibition / %: 24.6
//
compound: COCCNC(=O)C(c1ccc(C)cc1)N(C(=O)CCC(=O)Nc1ccccn1)c1cccc(C)c1 (stereo unspecified)
inhibition / %: 7
//
compound: C=CCOC(=O)C1=C(C)NC(SCC(=O)OCC)=C(C#N)C1c1ccc(C)cc1 (stereo unspecified)
inhibition / %: 0.1
//
compound: O=C(NNc1ccccn1)c1ccc(Cl)nc1
inhibition / %: -4.7
//
compound: CCN(CC)c1ccc(NC(=O)c2ccc(Cl)nc2)cc1
inhibition / %: 55.7
//
compound: Cc1ccc(C2CC(=O)NC(SCC(=O)OCc3ccccc3)=C2C#N)o1 (stereo unspecified)
inhibition / %: -14.2
//
compound: O=C(N/N=C\c1cc2c(cc1Cl)OCO2)c1ccc(Br)s1
inhibition / %: 0.3
//
compound: Cc1cnc(NC(=O)c2ccc(Cl)nc2)s1
inhibition / %: -6.8
//
compound: Cc1oc2cc3oc(=O)ccc3cc2c1C
inhibition / %: 3.1
//
compound: CCOC(=O)CSC1=C(C#N)C(c2sccc2C)CC(=O)N1 (stereo unspecified)
inhibition / %: 81.1

Proceeding to the next compound to report its inhibition.
Identify the reported inhibition for the following entry. `COc1cccc(CNC(=O)c2nnn(CC(=O)Nc3cc(Cl)ccc3C)c2N)c1` 19.7
